Assay: Inhibition of LDHB Activity
experimental-endpoint: IC50

// query Read the entry COC1CC=C(c2cc(-c3nn(-c4nc(C(=O)O)cs4)c(CC4CC4)c3Cc3ccc(S(N)(=O)=O)c(F)c3)ccc2F)CC1 (stereo not drawn) [US11752138, Compound 104] and write its reported IC50.
// result < 100 nM

// query Read the entry Cc1ccc(/C=C/c2cccc(-c3nn(-c4nc(C(=O)O)cs4)c(CC4CC4)c3Cc3ccc(S(N)(=O)=O)c(F)c3)c2)s1 [US11752138, Compound 119] and write its reported IC50.
// result < 100 nM

// query Read the entry CN(C)c1ccc(-c2cccc(-c3nn(-c4nc(C(=O)O)cs4)c(CC4CC4)c3Cc3ccc(S(N)(=O)=O)c(F)c3)c2)cc1 [US11752138, Compound 178] and write its reported IC50.
// result < 100 nM

====

Test: Inhibition of LDHB Activity
pIC50: −log10 of the molar value.
Exercise: state measured pIC50 for each of the compounds provided.

// query Read the entry N#Cc1ccc(-c2cccc(-c3nn(-c4nc(C(=O)O)cs4)c(CC4CC4)c3Cc3ccc(S(N)(=O)=O)c(F)c3)c2)cc1 [US11752138, Compound 176] and write its reported pIC50.
// result > 7.00

// query Read the entry CC(=O)c1cc(-c2nn(-c3nc(C(=O)O)cs3)c(CC3CC3)c2Cc2ccc(S(N)(=O)=O)c(F)c2)ccc1F [US11752138, Compound 140] and write its reported pIC50.
// result > 7.00

// query Read the entry Cc1ccc(-c2cccc(-c3nn(-c4nc(C(=O)O)cs4)c(CC4CC4)c3Cc3ccc(S(N)(=O)=O)c(F)c3)c2)cc1F [US11752138, Compound 167] and write its reported pIC50.
// result > 7.00
